Details: mouse, in vivo, sc, 50 mg/kg
QUANTITY NAME: hemoglobin (g/dL)
Please respond with the number in g/dL and leave the unit unwritten.

// worked examples, hemoglobin included
>>> reported_result("ISIS 416851: MOE gapmer, nucleobases 1275 to 1318 of SEQ ID NO: 1 (Table 8) (antisense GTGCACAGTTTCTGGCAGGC; MOE gapmer, wing and gap sizes not given here)")
14
>>> reported_result("ISIS 416864: MOE gapmer, nucleobases 1275 to 1318 of SEQ ID NO: 1 (Table 8) (antisense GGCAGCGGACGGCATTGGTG; MOE gapmer, wing and gap sizes not given here)")
15
>>> reported_result("ISIS 416860: MOE gapmer, nucleobases 1275 to 1318 of SEQ ID NO: 1 (Table 8) (antisense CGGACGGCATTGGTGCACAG; MOE gapmer, wing and gap sizes not given here)")
15

Kindly review the next substance as well.
Asked: Specify reported hemoglobin for the substance shown: ISIS 416862: MOE gapmer, nucleobases 1275 to 1318 of SEQ ID NO: 1 (Table 8) (antisense AGCGGACGGCATTGGTGCAC; MOE gapmer, wing and gap sizes not given here)
Given back: 14

###

Details: rat, in vivo, sc, 50 mg/kg
e = 2'-O-(2-methoxyethyl) (MOE); d = 2'-deoxy (DNA)
Bilirubin values, listed per item
Your answer should be a plain number; it is taken to be in mg/dL.

Sample answers from the record:
>>> reported_result("ISIS 445504: 5-8-5 or 6-8-6 MOE microwalk gapmer (Table 44) (antisense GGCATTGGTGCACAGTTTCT; sugars from the 5' end e6 d8 e6, backbone and methylation of C not given here)")
0.11
>>> reported_result("ISIS 445530: 5-8-5 or 6-8-6 MOE microwalk gapmer (Table 44) (antisense GCATTGGTGCACAGTTTC; sugars from the 5' end e5 d8 e5, backbone and methylation of C not given here)")
0.11
>>> reported_result("ISIS 445505: 5-8-5 or 6-8-6 MOE microwalk gapmer (Table 44) (antisense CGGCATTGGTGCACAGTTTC; sugars from the 5' end e6 d8 e6, backbone and methylation of C not given here)")
0.15
>>> reported_result("ISIS 445513: 5-8-5 or 6-8-6 MOE microwalk gapmer (Table 44) (antisense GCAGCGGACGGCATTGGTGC; sugars from the 5' end e6 d8 e6, backbone and methylation of C not given here)")
0.15
>>> reported_result("ISIS 445498: 5-8-5 or 6-8-6 MOE microwalk gapmer (Table 44) (antisense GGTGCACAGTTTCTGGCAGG; sugars from the 5' end e6 d8 e6, backbone and methylation of C not given here)")
0.14

Proceeding to the next substance to report its Bilirubin.
Asked: Please report the measured Bilirubin for ISIS 445509: 5-8-5 or 6-8-6 MOE microwalk gapmer (Table 44) (antisense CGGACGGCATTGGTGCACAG; sugars from the 5' end e6 d8 e6, backbone and methylation of C not given here)
Given back: 0.14

###

Recorded monocytes for the following substances
Test: Hematology assays in cynomolgus monkeys (Example 45)
Format: in vivo
Settings: day 57
Give the quantity in %, number only.

Would you please look over these solved cases?
>>> reported_result("ISIS 416864: MOE gapmer, nucleobases 1275 to 1318 of SEQ ID NO: 1 (Table 8) (antisense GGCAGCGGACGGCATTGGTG; MOE gapmer, wing and gap sizes not given here)")
2.4
>>> reported_result("ISIS 417002: MOE gapmer, nucleobases 1275 to 1318 of SEQ ID NO: 1 (Table 8) (antisense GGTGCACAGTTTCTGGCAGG; MOE gapmer, wing and gap sizes not given here)")
3.6
>>> reported_result("ISIS 416858: MOE gapmer, nucleobases 1275 to 1318 of SEQ ID NO: 1 (Table 8) (antisense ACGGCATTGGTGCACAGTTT; MOE gapmer, wing and gap sizes not given here)")
3.8

Asked: Supply reported monocytes belonging to this substance: ISIS 416838: MOE gapmer, nucleobases 1018 to 1042 of SEQ ID NO: 1 (Table 6) (antisense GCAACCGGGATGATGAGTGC; MOE gapmer, wing and gap sizes not given here)
Given back: 3.2
